Values were extracted from ChEMBL document CHEMBL3507680.

# Experiment: Human HepG2 cell viability assay in 384 well format
# Assay type: toxicity, cell-based
# Set-up: dose 125 nL, time 70.5 hour; concentration not given beside the values
# Stated Conditions: HepG2 cells, read-out: Inhibition
Endpoint: cytotoxicity at 70.5 h (%)
One number for each entry, in %.

Would you please look over these solved cases?
{"Molecule": "COc1ccc(CN2CC(O)CN(C(=O)OCC(C)(C)C)CC2=O)cc1 (stereo not drawn)", "Output Unit": "%", "Test Value": -2.24}
{"Molecule": "CS(=O)(=O)N1CC[C@H]2O[C@@H](C(=O)NCc3ccco3)CC[C@H]21", "Output Unit": "%", "Test Value": -12}
{"Molecule": "CC(=O)N1[C@H](Cn2cncn2)C[C@@H]2CN(c3ncc(F)cn3)CC[C@@H]21", "Output Unit": "%", "Test Value": -0.528}

Answer for every listed entry: what is its cytotoxicity at 70.5 h? The entries follow.
1. CSc1cccc(CNC(=O)[C@H]2CNC[C@H](C(=O)N3CCOCC3)C2)c1
2. CCCC(C)(C)NC(=O)c1cnc(C)s1
3. Cc1nc(CCCNC(=O)Nc2ccc(F)cc2F)n[nH]1
4. O=C(NCCCn1ccnc1)N1CCCC1c1ccncc1 (stereo not drawn)
5. Cc1cnc(CNC(=O)[C@@]23CCO[C@@H]2CCN(c2ncccn2)C3)cn1

Result:
1. -2.2
2. 2.45
3. -6.94
4. -1.54
5. -12.7
